Attribution: paper PMC6152131

- procedureSummary: Plasma concentration after a single oral dose of the anxiolytic fraction (HPLC)
- Type: in vivo, ICR mice
- assaySetup: mouse, plasma; 1440 min after single oral dose of 200 mg/kg of the anxiolytic fraction; ICR mice, n = 10
observable: concentration at 1440 min (ng/mL)

[A] O=C(O)Cc1ccc(O)c(O)c1 [DOPAC, 3,4-dihydroxyphenylacetic acid]
[B] O=C(O)Cc1cccc(O)c1 [m-HPAA, meta-hydroxyphenylacetic acid]
Higher concentration at 1440 min: A or B ? Refer to your chosen item by its label in the answer. A

---

- procedureSummary: Stability of flavonoids and biotransformation products in mouse plasma under different handling conditions
- Format: in vitro ADME, mice
- assaySetup: room temperature (25 °C), 8 h; medium nominal conc.
observable: Accuracy Bias 8 h (%)

Some solved cases for reference:
C[C@@H]1O[C@@H](OC[C@H]2O[C@@H](Oc3c(-c4ccc(O)c(O)c4)oc4cc(O)cc(O)c4c3=O)[C@H](O)[C@@H](O)[C@@H]2O)[C@H](O)[C@H](O)[C@H]1O [Rutin, rutin]: −4.97
C[C@@H]1O[C@@H](Oc2c(-c3ccc(O)c(O)c3)oc3cc(O)cc(O)c3c2=O)[C@H](O)[C@H](O)[C@H]1O [Quercitrin, quercitrin]: −2.11
O=C(O)Cc1cccc(O)c1 [m-HPAA, meta-hydroxyphenylacetic acid]: 2.18
O=C(O)Cc1ccc(O)cc1 [p-HPAA, para-hydroxyphenylacetic acid]: 2.05
O=c1c(O)c(-c2ccc(O)cc2)oc2cc(O)cc(O)c12 [Kaempferol, kaempferol]: 4.60

[A] O=C(O)Cc1ccc(O)c(O)c1 [DOPAC, 3,4-dihydroxyphenylacetic acid]
[B] O=c1c(O[C@@H]2O[C@H](CO)[C@@H](O)[C@H](O)[C@H]2O)c(-c2ccc(O)c(O)c2)oc2cc(O)cc(O)c12 [Quercetin glucoside, quercetin glucoside]
[C] O=C(/C=C/c1ccc(O)cc1)OC[C@H]1O[C@@H](Oc2c(-c3ccc(O)cc3)oc3cc(O)cc(O)c3c2=O)[C@H](O)[C@@H](O)[C@@H]1O [Tiliroside, tiliroside]
Ascending by Accuracy Bias 8 h, please. Your reply should list the labels following the order given in the request. C, A, B
(C: −2.95%, A: 0.03%, B: 6.02%)
